These data points were gathered from patent US7189741B2.

- measurement target: histamine-H1 receptors (Cavia porcellus)
- Construct: performed in guinea pig cerebellum membranes as described previously; from tissue; host or cells: guinea pig cerebellum membranes
- Sequence (P31389 whole entry): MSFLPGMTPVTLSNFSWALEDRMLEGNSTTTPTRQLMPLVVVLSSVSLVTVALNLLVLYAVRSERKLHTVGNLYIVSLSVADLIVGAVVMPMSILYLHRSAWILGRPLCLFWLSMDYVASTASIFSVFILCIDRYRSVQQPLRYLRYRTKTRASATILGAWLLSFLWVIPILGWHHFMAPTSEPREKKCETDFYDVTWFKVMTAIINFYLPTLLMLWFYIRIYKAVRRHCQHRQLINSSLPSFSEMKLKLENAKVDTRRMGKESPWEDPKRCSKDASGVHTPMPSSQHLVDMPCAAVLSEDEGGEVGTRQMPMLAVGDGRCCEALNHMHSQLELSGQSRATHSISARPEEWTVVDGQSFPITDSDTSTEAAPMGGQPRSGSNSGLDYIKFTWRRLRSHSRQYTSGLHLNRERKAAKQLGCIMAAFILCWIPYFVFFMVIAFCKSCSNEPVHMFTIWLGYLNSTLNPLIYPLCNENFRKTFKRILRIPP
- experiment summary: Histamine-H1 receptor binding assay ([3H]-mepyramine displacement)
- Set-up: species or system guinea pig
- experimental conditions: guinea pig cerebellum membranes, 0.7 nM [3H]-mepyramine, 30 min at 30° C.; read-out: Binding to receptor H1 (IC50)
measured quantity: IC50
// return the numeric value with its unit appended

Field: example entries. Status: answers known.
smiles str	assay result
O=C(O)c1cccc(CN2CCC(c3cn(Cc4ccco4)c4cc(F)ccc34)CC2)c1	107 nM
O=C(O)c1ccccc1OCCN1CCC(c2cn(Cc3ccoc3)c3cc(F)ccc23)CC1	31 nM

What does the record list as IC50 for "COc1ccc(CN2CCC(c3cn(Cc4cccs4)c4cc(F)ccc34)CC2)cc1C(=O)O" ? 91 nM
